# Tested on: 415267-285-R-J2-PDC complex spheroid viability
# assayMethodText: Anticancer human tumor 415267-285-R-J2-PDC patient-derived breast carcinoma cell line growth inhibition [POLQ]
# assayContext: second compound 0.0316 µM; first compound 1 µM; stronger effect = lower value
propertyName: viability, T/C (%)

- compound: "C=CCn1c(=O)c2cnc(Nc3ccc(N4CCN(C)CC4)cc3)nc2n1-c1cccc(C(C)(C)O)n1 + Cc1cccc(N(C)C(=O)C2C(O)CCN2c2nc(C)cc(C(F)(F)F)c2C#N)c1"
  targetUnderTest: "415267-285-R-J2-PDC complex spheroid viability"
  propertyName: "viability, T/C"
  endpointValue: 8
- compound: "COc1cccc2c1C(=O)c1c(O)c3c(c(O)c1C2=O)CC(O)(C(=O)CO)CC3OC1CC(N)C(O)C(C)O1 (stereo not drawn) + Cc1cccc(N(C)C(=O)C2C(O)CCN2c2nc(C)cc(C(F)(F)F)c2C#N)c1"
  targetUnderTest: "415267-285-R-J2-PDC complex spheroid viability"
  propertyName: "viability, T/C"
  endpointValue: 0.86
- compound: "CC1COCCN1c1cc(C2(O)CC3CCC(C2)O3)c2cnn(-c3ccn[nH]3)c2n1 (stereo not drawn) + COC1C(OC(N)=O)C(O)C(Oc2ccc3c(O)c(NC(=O)c4ccc(O)c(CC=C(C)C)c4)c(=O)oc3c2C)OC1(C)C"
  targetUnderTest: "415267-285-R-J2-PDC complex spheroid viability"
  propertyName: "viability, T/C"
  endpointValue: 5.44

====

# Tested on: 415267-285-R-J2-PDC complex spheroid viability
# assayMethodText: Anticancer human tumor 415267-285-R-J2-PDC cell line growth inhibition [POLQ];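 note: luminescence used as stand-in measure of viable cells; spheroids exposed to compounds for one week before readout; 100% = DMSO vehicle control viability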
# assayContext: second compound 0.1 µM; first compound 0.0316 µM; stronger effect = lower value
# Experimental: Multicellular complex tumor spheroid response to Polymerase (POL) inhibitors (novobiocin, ART-558, RP6685) in combination with a variety of drugs and investigational agents in selected tumor cell lines The POL inhibitors (novobiocin, ART-558, and RP6685) were evaluated both individually and in combination with standard of care and investigational anticancer small molecules within a complex spheroid model of solid tumors. . […]
Field: label. Allowed values: condition met (viability, T/C < 90%) or condition not met (viability, T/C >= 90%).

- compound: "O=c1[nH]cc(F)c(=O)[nH]1 + COC1C(OC(N)=O)C(O)C(Oc2ccc3c(O)c(NC(=O)c4ccc(O)c(CC=C(C)C)c4)c(=O)oc3c2C)OC1(C)C"
  targetUnderTest: "415267-285-R-J2-PDC complex spheroid viability"
  classification: "condition met"
- compound: "O=c1[nH]cc(F)c(=O)[nH]1 + Cc1cccc(N(C)C(=O)C2C(O)CCN2c2nc(C)cc(C(F)(F)F)c2C#N)c1"
  targetUnderTest: "415267-285-R-J2-PDC complex spheroid viability"
  classification: "condition not met"
- compound: "CC1COCCN1c1cc(C2(O)CC3CCC(C2)O3)c2cnn(-c3ccn[nH]3)c2n1 (stereo unspecified) + COC1C(OC(N)=O)C(O)C(Oc2ccc3c(O)c(NC(=O)c4ccc(O)c(CC=C(C)C)c4)c(=O)oc3c2C)OC1(C)C"
  targetUnderTest: "415267-285-R-J2-PDC complex spheroid viability"
  classification: "condition met"
- compound: "COc1ccc([C@@H](O)c2cc(-c3ncnc4cc(N5CCOCC5)ccc34)c(F)cc2Cl)nn1 + Cc1cccc(N(C)C(=O)C2C(O)CCN2c2nc(C)cc(C(F)(F)F)c2C#N)c1"
  targetUnderTest: "415267-285-R-J2-PDC complex spheroid viability"
  classification: "condition not met"
- compound: "CC1COCCN1c1cc(C2(S(C)(=N)=O)CC2)nc(-c2ccnc3[nH]ccc23)n1 (stereo unspecified) + Nc1ccc(C#CCN(C(=O)Cc2ncc(C(F)(F)F)cc2C(F)(F)F)c2ccc(F)cc2)nn1"
  targetUnderTest: "415267-285-R-J2-PDC complex spheroid viability"
  classification: "condition not met"
- compound: "CCCS(=O)(=O)Nc1ccc(F)c(C(=O)c2c[nH]c3ncc(-c4ccc(Cl)cc4)cc23)c1F + Cc1cccc(N(C)C(=O)C2C(O)CCN2c2nc(C)cc(C(F)(F)F)c2C#N)c1"
  targetUnderTest: "415267-285-R-J2-PDC complex spheroid viability"
  classification: "condition not met"
